All figures here come from ChEMBL document CHEMBL3120088.

experiment: Inhibition of PI3Kalpha (1 to 1068)/6xHis-tagged p85 (1 to 724) (unknown origin) using diC8-PIP2 as substrate preincubated for 30 mins followed by substrate addition measured after 45 to 60 mins; parameters: species or system Homo sapiens
Measured Property: pIC50

[[record]]
molecule = "COc1ncc(-c2ccc3nc(N)n(-c4ccccc4)c(=O)c3c2)cc1N(C)S(=O)(=O)c1ccc(F)cc1F"
measured_property = "pIC50"
endpoint_result = 5.5

[[record]]
molecule = "COc1ncc(-c2cc3cc(-c4ccccc4)c(N)nc3cn2)cc1NS(=O)(=O)c1ccc(F)cc1F"
measured_property = "pIC50"
endpoint_result = 5.7

[[record]]
molecule = "COc1ncc(-c2ccc3nc(N)c(-c4ccccc4)cc3c2)cc1NS(=O)(=O)c1ccc(F)cc1F"
measured_property = "pIC50"
endpoint_result = 6.5

[[record]]
molecule = "COc1ncc(-c2ccc3nc(N)n(-c4ccccc4)c(=O)c3c2)cc1NS(=O)(=O)c1ccc(C)cc1"
measured_property = "pIC50"
endpoint_result = 7.3

[[record]]
molecule = "COc1ncc(-c2ccc3nc(N)n(-c4ccccc4C(F)(F)F)c(=O)c3c2)cc1S(=O)(=O)Nc1ccc(F)cc1F (atropisomer aS)"
measured_property = "pIC50"
endpoint_result = 5.6

[[record]]
molecule = "COc1ncc(-c2ccc3nc(N)n(-c4ccccc4C)c(=O)c3c2)cc1S(=O)(=O)Nc1ccc(F)cc1F"
measured_property = "pIC50"
endpoint_result = 6.5

[[record]]
molecule = "Nc1ncc(-c2ccc3nc(N)n(-c4ccccc4)c(=O)c3c2)cc1NS(=O)(=O)c1ccc(F)cc1F"
measured_property = "pIC50"
endpoint_result = 6.7

[[record]]
molecule = "CCn1c(N)nc2ccc(-c3cnc(OC)c(S(=O)(=O)Nc4ccc(F)cc4F)c3)cc2c1=O"
measured_property = "pIC50"
endpoint_result = 6.9

[[record]]
molecule = "COc1ncc(-c2ccc3nc(N)n(-c4ccccc4)c(=O)c3c2)cc1S(=O)(=O)Nc1ccc(F)cc1F"
measured_property = "pIC50"
endpoint_result = 6

[[record]]
molecule = "COc1ncc(-c2ccc3nc(N)c(-c4ccc(N5CCOCC5)cc4)cc3c2)cc1NS(=O)(=O)c1ccc(F)cc1F"
measured_property = "pIC50"
endpoint_result = 5.6

[[record]]
molecule = "COc1ncc(-c2ccc3nc(N)n(-c4ccccc4)c(=O)c3c2)cc1NS(=O)(=O)c1ccccc1C"
measured_property = "pIC50"
endpoint_result = 7.2

[[record]]
molecule = "COc1ncc(-c2ccc3nc(N)c(-c4ccccc4)cc3n2)cc1NS(=O)(=O)c1ccc(F)cc1F"
measured_property = "pIC50"
endpoint_result = 4.2

[[record]]
molecule = "COc1ncc(-c2ccc3nc(N)n(-c4cccc(C(F)(F)F)c4)c(=O)c3c2)cc1S(=O)(=O)Nc1ccc(F)cc1F"
measured_property = "pIC50"
endpoint_result = 6

[[record]]
molecule = "COc1ncc(-c2ccc3nc(N)n(-c4ccccc4)c(=O)c3c2)cc1NS(C)(=O)=O"
measured_property = "pIC50"
endpoint_result = 6.4

[[record]]
molecule = "COc1ncc(-c2ccc3nc(N)n(-c4ccccc4C(F)(F)F)c(=O)c3c2)cc1S(=O)(=O)Nc1ccc(F)cc1F (atropisomer aR)"
measured_property = "pIC50"
endpoint_result = 5.5

[[record]]
molecule = "COc1ncc(-c2ccc3nc(N)n(C4CCOCC4)c(=O)c3c2)cc1S(=O)(=O)Nc1ccc(F)cc1F"
measured_property = "pIC50"
endpoint_result = 6.6

[[record]]
molecule = "COc1ccc(-c2ccc3nc(N)n(-c4ccccc4)c(=O)c3c2)cc1NS(=O)(=O)c1ccc(F)cc1F"
measured_property = "pIC50"
endpoint_result = 5.8

[[record]]
molecule = "COc1ncc(-c2ccc3nc(N)n(-c4ccccc4)c(=O)c3c2)cc1NS(=O)(=O)c1ccc(C#N)cc1"
measured_property = "pIC50"
endpoint_result = 6.6

[[record]]
molecule = "COc1ncc(-c2ccc3nc(N)n(-c4ccccc4C(C)C)c(=O)c3c2)cc1S(=O)(=O)Nc1ccc(F)cc1F"
measured_property = "pIC50"
endpoint_result = 5.8

[[record]]
molecule = "COc1ncc(-c2ccc3nc(N)n(-c4ccccc4)c(=O)c3c2)cc1NS(=O)(=O)C(C)C"
measured_property = "pIC50"
endpoint_result = 6.4

[[record]]
molecule = "COc1ncc(-c2ccc3nc(N)n(-c4ccccc4)c(=O)c3c2)cc1NS(=O)(=O)c1cccc(C)c1"
measured_property = "pIC50"
endpoint_result = 7.1

[[record]]
molecule = "COc1ncc(-c2ccc3nc(N)n(-c4ccc(C(F)(F)F)cc4)c(=O)c3c2)cc1S(=O)(=O)Nc1ccc(F)cc1F"
measured_property = "pIC50"
endpoint_result = 6.1

[[record]]
molecule = "COc1ncc(-c2ccc3ncnc(N4CCOCC4)c3c2)cc1NS(=O)(=O)c1ccc(F)cc1F"
measured_property = "pIC50"
endpoint_result = 8.9

[[record]]
molecule = "COc1ncc(-c2cnc3nc(N)c(-c4ccccc4)cc3c2)cc1NS(=O)(=O)c1ccc(F)cc1F"
measured_property = "pIC50"
endpoint_result = 5.3

[[record]]
molecule = "COc1ncc(-c2ccc3nc(N)n(-c4ccccc4)c(=O)c3c2)cc1NS(=O)(=O)c1ccccc1"
measured_property = "pIC50"
endpoint_result = 7.3

[[record]]
molecule = "COc1ncc(-c2ccc3nc(N)n(-c4ccccc4)c(=O)c3c2)cc1NS(=O)(=O)c1cccnc1"
measured_property = "pIC50"
endpoint_result = 8.4

[[record]]
molecule = "COc1ncc(-c2ccc3nc(N)n(-c4ccccc4)c(=O)c3c2)cc1NS(=O)(=O)c1ccc(F)cc1F"
measured_property = "pIC50"
endpoint_result = 8.2

[[record]]
molecule = "COc1ncc(-c2ccc3nc(N)c(-c4ccccc4)nc3c2)cc1NS(=O)(=O)c1ccc(F)cc1F"
measured_property = "pIC50"
endpoint_result = 7.1

